Target: human D3 receptor (Homo sapiens (Human))
Sequence (P35462 whole entry): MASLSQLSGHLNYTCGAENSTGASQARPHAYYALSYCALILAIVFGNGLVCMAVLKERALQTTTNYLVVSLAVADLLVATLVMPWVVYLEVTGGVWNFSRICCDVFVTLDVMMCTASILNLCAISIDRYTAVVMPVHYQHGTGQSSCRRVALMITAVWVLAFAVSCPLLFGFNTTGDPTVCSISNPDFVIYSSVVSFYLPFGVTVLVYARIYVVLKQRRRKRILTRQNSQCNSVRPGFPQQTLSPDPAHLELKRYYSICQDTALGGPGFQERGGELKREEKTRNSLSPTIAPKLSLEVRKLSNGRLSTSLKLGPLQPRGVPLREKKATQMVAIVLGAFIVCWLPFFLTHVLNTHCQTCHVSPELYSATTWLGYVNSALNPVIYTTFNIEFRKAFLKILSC
Each record here notes measured Ki.
Value Kind: Ki (nM)

[[record]]
molecule = "CCS(=O)(=O)N[C@H]1CC[C@H](CCN2CCN(c3nccc4occc34)CC2)CC1"
tgt = "human D3 receptor (Homo sapiens (Human))"
endpoint_result = 30.6

[[record]]
molecule = "O=C(N[C@H]1CC[C@H](CCN2CCN(c3nccc4occc34)CC2)CC1)C1CCOCC1"
tgt = "human D3 receptor (Homo sapiens (Human))"
endpoint_result = 55.7

[[record]]
molecule = "C[C@]1(O)CC[C@@H](C(=O)N[C@H]2CC[C@H](CCN3CCN(c4nccc5c4CCO5)CC3)CC2)CC1"
tgt = "human D3 receptor (Homo sapiens (Human))"
endpoint_result = 45.3

[[record]]
molecule = "CC(C)C(=O)N[C@H]1CC[C@H](CCN2CCN(c3nccc4c3CCO4)CC2)CC1"
tgt = "human D3 receptor (Homo sapiens (Human))"
endpoint_result = 16.6

[[record]]
molecule = "CCC(=O)N[C@H]1CC[C@H](CCN2CCN(c3nccc4sccc34)CC2)CC1"
tgt = "human D3 receptor (Homo sapiens (Human))"
endpoint_result = 1.6

[[record]]
molecule = "CC(C)(C)Oc1ccc(C(=O)N[C@H]2CC[C@H](CCN3CCN(c4nccc5c4CCO5)CC3)CC2)cc1"
tgt = "human D3 receptor (Homo sapiens (Human))"
endpoint_result = 69.5

[[record]]
molecule = "O=S(=O)(N[C@H]1CC[C@H](CCN2CCN(c3nccc4c3CCO4)CC2)CC1)c1ccc(F)cc1"
tgt = "human D3 receptor (Homo sapiens (Human))"
endpoint_result = 6.72

[[record]]
molecule = "O=C(N[C@H]1CC[C@H](CCN2CCN(c3nccc4c3CCO4)CC2)CC1)c1cnc(N2CCOCC2)cn1"
tgt = "human D3 receptor (Homo sapiens (Human))"
endpoint_result = 119

[[record]]
molecule = "CO[C@H](C)C(=O)N[C@H]1CC[C@H](CCN2CCN(c3nccc4c3CCO4)CC2)CC1"
tgt = "human D3 receptor (Homo sapiens (Human))"
endpoint_result = 109

[[record]]
molecule = "O=C(CC1CCCO1)N[C@H]1CC[C@H](CCN2CCN(c3nccc4c3CCO4)CC2)CC1 (mixture of isomers)"
tgt = "human D3 receptor (Homo sapiens (Human))"
endpoint_result = 24.2

[[record]]
molecule = "O=C(N[C@H]1CC[C@H](CCN2CCN(c3nccc4c3CCO4)CC2)CC1)c1ccc(N2CCOCC2)nc1"
tgt = "human D3 receptor (Homo sapiens (Human))"
endpoint_result = 44.7

[[record]]
molecule = "CC(C)(C)c1ccc(C(=O)N[C@H]2CC[C@H](CCN3CCN(c4nccc5c4CCO5)CC3)CC2)cc1"
tgt = "human D3 receptor (Homo sapiens (Human))"
endpoint_result = 147

[[record]]
molecule = "O=C(N[C@H]1CC[C@H](CCN2CCN(c3nccc4c3CCO4)CC2)CC1)C1CCCOC1 (mixture of isomers)"
tgt = "human D3 receptor (Homo sapiens (Human))"
endpoint_result = 28.8

[[record]]
molecule = "O=C(N[C@H]1CC[C@H](CCN2CCN(c3nccc4c3CCO4)CC2)CC1)C1(O)CC1"
tgt = "human D3 receptor (Homo sapiens (Human))"
endpoint_result = 27.1

[[record]]
molecule = "Cc1cc(C(=O)N[C@H]2CC[C@H](CCN3CCN(c4nccc5c4CCO5)CC3)CC2)on1"
tgt = "human D3 receptor (Homo sapiens (Human))"
endpoint_result = 31.1

[[record]]
molecule = "CC(=O)N[C@H]1CC[C@H](CCN2CCN(c3nccc4c3CCO4)CC2)CC1"
tgt = "human D3 receptor (Homo sapiens (Human))"
endpoint_result = 12.7

[[record]]
molecule = "CN(C)S(=O)(=O)N[C@H]1CC[C@H](CCN2CCN(c3nccc4occc34)CC2)CC1"
tgt = "human D3 receptor (Homo sapiens (Human))"
endpoint_result = 33

[[record]]
molecule = "CO[C@H]1CC[C@H](CC(=O)N[C@H]2CC[C@H](CCN3CCN(c4nccc5c4CCO5)CC3)CC2)C1"
tgt = "human D3 receptor (Homo sapiens (Human))"
endpoint_result = 19.4

[[record]]
molecule = "CS(=O)(=O)c1ccc(C(=O)N[C@H]2CC[C@H](CCN3CCN(c4nccc5c4CCO5)CC3)CC2)s1"
tgt = "human D3 receptor (Homo sapiens (Human))"
endpoint_result = 33.8

[[record]]
molecule = "CCC(=O)N[C@H]1CC[C@H](CCN2CCN(c3nccc4occc34)CC2)CC1"
tgt = "human D3 receptor (Homo sapiens (Human))"
endpoint_result = 11.8

[[record]]
molecule = "O=C(N[C@H]1CC[C@H](CCN2CCN(c3nccc4c3CCO4)CC2)CC1)C(O)C(F)(F)F (mixture of isomers)"
tgt = "human D3 receptor (Homo sapiens (Human))"
endpoint_result = 37.9

[[record]]
molecule = "CC(=O)N[C@H]1CC[C@H](CCN2CCN(c3nccc4occc34)CC2)CC1"
tgt = "human D3 receptor (Homo sapiens (Human))"
endpoint_result = 18.3

[[record]]
molecule = "Cc1cc2occc2c(N2CCN(CC[C@H]3CC[C@H](NC(=O)C4CCOCC4)CC3)CC2)n1"
tgt = "human D3 receptor (Homo sapiens (Human))"
endpoint_result = 14.2

[[record]]
molecule = "COCCC(=O)N[C@H]1CC[C@H](CCN2CCN(c3nc(C)cc4occc34)CC2)CC1"
tgt = "human D3 receptor (Homo sapiens (Human))"
endpoint_result = 4.8

[[record]]
molecule = "CN(C)C(=O)CCC(=O)N[C@H]1CC[C@H](CCN2CCN(c3nccc4c3CCO4)CC2)CC1"
tgt = "human D3 receptor (Homo sapiens (Human))"
endpoint_result = 37.6

[[record]]
molecule = "CC(=O)N[C@H]1CC[C@H](CCN2CCN(c3nccc4sccc34)CC2)CC1"
tgt = "human D3 receptor (Homo sapiens (Human))"
endpoint_result = 1.9

[[record]]
molecule = "O=C(Cc1ccc2c(c1)OCO2)N[C@H]1CC[C@H](CCN2CCN(c3nccc4c3CCO4)CC2)CC1"
tgt = "human D3 receptor (Homo sapiens (Human))"
endpoint_result = 18.6

[[record]]
molecule = "COCC(=O)N[C@H]1CC[C@H](CCN2CCN(c3nccc4c3CCO4)CC2)CC1"
tgt = "human D3 receptor (Homo sapiens (Human))"
endpoint_result = 45.4

[[record]]
molecule = "CS(=O)(=O)N[C@H]1CC[C@H](CCN2CCN(c3nccc4sccc34)CC2)CC1"
tgt = "human D3 receptor (Homo sapiens (Human))"
endpoint_result = 4.3

[[record]]
molecule = "CO[C@@H](C)C(=O)N[C@H]1CC[C@H](CCN2CCN(c3nccc4c3CCO4)CC2)CC1"
tgt = "human D3 receptor (Homo sapiens (Human))"
endpoint_result = 252

[[record]]
molecule = "N#Cc1ccc(C(=O)N[C@H]2CC[C@H](CCN3CCN(c4nccc5c4CCO5)CC3)CC2)cc1"
tgt = "human D3 receptor (Homo sapiens (Human))"
endpoint_result = 28

